All figures here come from ChEMBL document CHEMBL5131514.

System: Bacteria
assayText: Inhibition of recombinant bacterial beta-lactamase VIM-2 (26 to 266 residues) expressed in Escherichia coli Lemo21(DE3) at 200 uM using CENTA substrate by colorimetric assay relative to control
measure: inhibition (%)

Sc1nnc(-c2ccco2)n1C1CC1 ... 81
S=C(N/N=C/c1ccccc1)N1CCOCC1 ... 33
CCn1c(S)nnc1-c1nn(C)c(C)c1Cl ... 86
O=C(NC(=S)NNC(=O)c1cccs1)c1ccc(Br)o1 ... 45
Sc1nnc(-c2cccnc2)n1CC1CCCO1 (stereo not given) ... 87

###

assayText: Binding affinity to recombinant full-length bacterial beta-lactamase KPC-2 assessed as inhibition constant using nitrocefin as substrate by spectrophotometric assay
Set-up: species or system Bacteria
pKi: −log10 of the molar value.
measure: pKi

S=c1[nH]ncn1/N=C/c1c[nH]c2ccccc12 ... 3.86
Sc1nncn1/N=C/c1ccc(Br)cc1 ... 3.80
CCN(CC)c1ccc(CNn2cn[nH]c2=S)cc1 ... 3.58
S=c1[nH]ncn1NCc1ccc2c(c1)OCO2 ... 3.86
